Property: Euclidean distance; scope: individual compounds
Tested on: 786-O
Test: Euclidean distance of Cell Painting phenotypic profile (signed KS, 77 features) to DMSO centroid (dimensionless distance); 5 or 10 uM (library dependent); higher = stronger phenotypic change vs DMSO (phenoactivity)
Conditions: 48 h
Structures can show the parent of a compound that is named as a salt.
Recorded Endpoint: Euclidean distance

>>> val("C/C(=C\\C(=O)OCCCCCCCCC(=O)O)C[C@@H]1OC[C@H](C[C@@H]2O[C@H]2[C@@H](C)[C@H](C)O)[C@@H](O)[C@H]1O")
1.28
>>> val("CCC/C=C1\\OC(=O)C2=C1CCC=C2 [Ligustilide]")
0.797
>>> val("CN[C@@H]1[C@@H](O)[C@@H](O[C@@H]2[C@@H](O)[C@H](O[C@H]3OC(CN)=CC[C@H]3N)[C@@H](N)C[C@H]2N)OC[C@]1(C)O [Sisomicin sulfate]")
1.2
>>> val("CC(=O)[C@@]1(O)CC[C@H]2[C@@H]3CCC4=CC(=O)CCC4=C3[C@@H](c3ccc(N(C)C)cc3)C[C@@]21C")
0.949
>>> val("CN1C(C(=O)Nc2ccccn2)=C(O)c2sccc2S1(=O)=O")
0.866
>>> val("COc1cc2nc(N3CCN(C(=O)c4ccco4)CC3)nc(N)c2cc1OC [Prazosin HCl]")
0.833
>>> val("CC1(C)C2CCC1(C)C(O)C2 (centres undefined)")
1.17
>>> val("CCOc1nc2cccc(C(=O)O)c2n1Cc1ccc(-c2ccccc2-c2noc(=O)[nH]2)cc1")
0.834
>>> val("CN(C)C(=O)C(CCN1CCC(O)(c2ccc(Cl)cc2)CC1)(c1ccccc1)c1ccccc1 [Loperamide HCl]")
1.64

* * *

Test system: 786-O
Assay: Euclidean distance of Cell Painting phenotypic profile (signed KS, 77 features) to DMSO centroid (dimensionless distance); 5 or 10 uM (library dependent); higher = stronger phenotypic change vs DMSO (phenoactivity)
Details: 48 h
Structures can show the parent of a compound that is named as a salt.
TRUE means recorded Euclidean distance is 1 or above; FALSE means it is below 1.

>>> label("CC1(C)S[C@@H]2[C@H](NC(=O)Cc3ccccc3)C(=O)N2[C@H]1C(=O)O [Benzylpenicillin potassium]")
"TRUE"
>>> label("Cc1cc(-c2ccc(CC(=O)Nc3ccc(-c4cccnc4)cc3)cc2)ccn1")
"TRUE"
>>> label("CC(=O)O[C@@H]1CC[C@@]2(C)[C@@H](CC[C@]3(C)[C@@H]2C(=O)C=C2[C@@H]4[C@@H](C)[C@H](C)CC[C@]4(C)CC[C@]23C)[C@@]1(C)C(=O)O")
"FALSE"
>>> label("NCC(=O)CCC(=O)O [5-Aminolevulinic acid HCl]")
"TRUE"
>>> label("COc1cc(N2CCN(C)CC2)ccc1Nc1nccc(-c2cn(C)c3cnccc23)n1")
"TRUE"
>>> label("COc1ccc2[nH]c([S@@+]([O-])Cc3ncc(C)c(OC)c3C)nc2c1 [NEXIUM (esomeprazole magnesium)]")
"TRUE"
>>> label("C[C@H](NC(=O)[C@@H](Cc1ccc2ccccc2c1)NC(=O)[C@@H](C)N)C(=O)N[C@@H](Cc1c[nH]c2ccccc12)C(=O)N[C@H](Cc1ccccc1)C(=O)N[C@@H](CCCCN)C(N)=O")
"TRUE"
>>> label("CCC[C@H](NC(=O)/C(C#N)=C/c1cccc(Br)n1)c1ccccc1 [Degrasyn (WP1130)]")
"TRUE"
>>> label("CC(=O)SCC(Cc1ccccc1)C(=O)NCC(=O)OCc1ccccc1 (stereo unspecified)")
"TRUE"
>>> label("Cc1nc2cccc(N)c2c(=O)n1C1CCC(=O)NC1=O (stereo unspecified) [Avadomide(CC-122)]")
"FALSE"
>>> label("CC(C)OC(=O)C(C(=O)OC(C)C)=C1SC=CS1 [Malotilate]")
"TRUE"
>>> label("CCCCCCCCCCCCCCCCOP(=O)([O-])OCC[N+](C)(C)C")
"TRUE"
>>> label("Cc1[nH]c(/C=C2\\C(=O)Nc3ccccc32)c(C)c1CCC(=O)O [TSU-68 (SU6668. Orantinib)]")
"FALSE"
>>> label("CCN(C(=O)c1c(O)c2c(Cl)cccc2n(C)c1=O)c1ccccc1")
"FALSE"
>>> label("OCc1cc([C@@H](O)CNCCCCCCOCCOCc2c(Cl)cccc2Cl)ccc1O [Vilanterol Trifenate]")
"TRUE"
